# System: PPARg:RXRa 270nM:90nM, anti-RXR (NR concentration 270 nM, RXRa partner concentration 90 nM)
# test: PBM binding z-score (relative to random genomic background probes); higher = stronger binding; sequences stand for … in GC…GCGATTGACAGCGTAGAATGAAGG
// values below are reported PBM binding z-score
Just the number, please, no unit after it.

INSERT INTO results (sequence_code, measured_property, quantitative_result) VALUES
  ('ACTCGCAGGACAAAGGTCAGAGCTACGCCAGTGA', 'PBM binding z-score', 6.87),
  ('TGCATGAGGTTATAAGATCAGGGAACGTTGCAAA', 'PBM binding z-score', 1.2);

Qu. So what does the record say about PBM binding z-score for CGGACTAGGTCAGAACAGGACAGTGAAGGATGAT ?
Ans. 3.5

Qu. If you can, please state the reported PBM binding z-score value of TCATGTAGATCAACAGGAGGTTAAGAAAGATCGA .
Ans. 1.35

Qu. # get_value(readout='PBM binding z-score', item= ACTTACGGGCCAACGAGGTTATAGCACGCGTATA )
Ans. 0.372

Qu. Report PBM binding z-score for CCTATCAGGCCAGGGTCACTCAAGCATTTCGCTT please.
Ans. 1.93

Qu. Can you share its PBM binding z-score? I mean this sequence: TCTTGTAGATCAAAGATTAAGAAAGCCGAAGCCT
Ans. 3.63
